# ASSAY SUMMARY: LAP4-GFP modulation potency in yeast, dose response, cell-based, MLPCN hits, flow cytometry (AID 2745);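 note: yeast exposed to compound for three hours at 30 degrees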
# ASSAY CONTEXT: S. cerevisiae LAP4-GFP reporter, flow cytometry fluorescence; at 33 µM (top of the series)
Calls of active or inactive are those of the source. The rule behind the calls is not given here.
Overview of reported LAP4-GFP fluorescence (kMESF) across a group of molecules:

MOLECULE: O=C(O)c1ccccc1SC1CC(=O)N(c2ccc3c(c2)OCO3)C1=O (stereo not given)
LAP4-GFP fluorescence (kMESF): 5.3 kMESF (inactive)
--
MOLECULE: Cc1ccccc1OCCOC(=O)c1ccc(S(=O)(=O)N2CCCC2)cc1
LAP4-GFP fluorescence (kMESF): 3.13 kMESF (inactive)
--
MOLECULE: CC(=O)N(C1=C(Cl)C(=O)c2ccccc2C1=O)C1CCCCC1
LAP4-GFP fluorescence (kMESF): -2.43 kMESF (inactive)
--
MOLECULE: CCOc1ccc(N2C(=O)C(Cl)=C(Nc3ccccc3O)C2=O)cc1
LAP4-GFP fluorescence (kMESF): 5.81 kMESF (inactive)
--
MOLECULE: Cc1ccc(/C=c2\sc3nc(-c4cccs4)nn3c2=O)o1
LAP4-GFP fluorescence (kMESF): 7.32 kMESF (inactive)
